# Target Or Test System: H1N1 hemagglutinin (Cat No.: Z03181, GenScript), full-length recombinant HA (His-Tag) (influenza A virus H1N1 (strain not stated))
# Assay: SPR
Would you mind telling me the reported Kd of each entry?
Answers are plain numbers, in µM.

Binder	Unit Annotation	Kd
Ac-SKHA-NH2 [peptide 6 (Ac-SKHA-NH2)]	µM	6.75
Ac-SLAC-NH2 [peptide 9 (Ac-SLAC-NH2)]	µM	2.57
Ac-SAHS-NH2 [peptide 4 (Ac-SAHS-NH2)]	µM	0.0035
Ac-AKHS-NH2 [peptide 3 (Ac-AKHS-NH2)]	µM	2.7
Ac-SADC-NH2 [peptide 8 (Ac-SADC-NH2)]	µM	2.19

Provide Kd for all items below, preserving their order.
1. Ac-SKAS-NH2 [peptide 5 (Ac-SKAS-NH2)]
2. Ac-SLDA-NH2 [peptide 10 (Ac-SLDA-NH2)]
3. Ac-ALDC-NH2 [peptide 7 (Ac-ALDC-NH2)]

**Result**
1: 1.03; 2: 0.343; 3: 0.0277
